Exercise: for every item that follows, state its recorded FACS percent gated.
Molecular target: Human CD38 on transiently transfected Expi293 cells (Origene SC321273) (human) (UniProt P28907)
Test: flow cytometry, 10 ug/ml scFv-Fc, transfected Expi293 cells
Please give a number only; it is taken to be in %.

// query So what does the record say about FACS percent gated for 40769p2.2.G3 scFv-Fc (scFv, part only; not given: Linker, domain order, Fc, V domains shown, not shown: another chain or arm of the molecule; a dimerising Fc or GST; small tags and cut ends) VH: EVQLLESGGGLVQPGGSLRLSCTASGITFSRFNMFWVRQAPGKGLEFVASIRDDGSWTYYADSVKGQFTISRDNSKNTLYLQMNSLRAEDTAVYYCAKDYSSKDFIYHYVMDVWGQGTTVTVSS VL: QSVLTQPPSASGTPGQRVTISCSGRNSNIGNNVVNWYQQLPGTAPKLLIYRNQERPSGVPDRFSGSKSGTSASLAISGLQSEDEADYYCASWDDSLNAWVFGRGTKLTVL ?
// result 92.1

// query Another binder: 40769p2.1.G4 scFv-Fc (scFv, part only; not given: Linker, domain order, Fc, V domains shown, not shown: another chain or arm of the molecule; a dimerising Fc or GST; small tags and cut ends) VH: EVQLLESGGGLVQPGGSLRLSCAASGFTFTSHDMNWVRQAPGKGLEWVSTITTGGNTYYADSVKGRFTISRDNSKNTLYLQMTSLRAEDTAVYYCTKHYSMDVWGQGTTVTVSS VL: QSVLTQPPSASGTPGQRVTISCSGSTSNVVFNAVYWYQQLPGTAPKLLFYGKSQRPSGVPDRFSGSKSGTSASLAISGLQSEDEADYYCAAWDDTLNGWVFGGGTKLTVL
// result 77

// query Another binder: 40769p2.2.H4 scFv-Fc (scFv, part only; not given: Linker, domain order, Fc, V domains shown, not shown: another chain or arm of the molecule; a dimerising Fc or GST; small tags and cut ends) VH: EVQLLESGGGLVQPGGSLRLSCAASGFDFSSYWMNWVRQAPGKGLEWVSTISSGGSIIYYADSVKGQFTISRDNSKNTLYLQMNSLRAEDTAVYYCAKDNWNDYYGMDVWGQGTTVTVSS VL: QSVPTQPPSASGTPGQRVTISCSGSSSNIRDNYVYWYQQVPGTAPKLLIYKDDQRPSGVPDRFSGSKSGTSASLAISGLQSEDEADYYCATWDGSLNARVFGGGTKLTVL
// result 92.5
